Just for reference, PubChem BioAssay (NCI) is where these values come from.

Measured growth, listed per entry for reference.
- Test system: DU-145 prostate
- ASSAY_REMARKS: NCI-60 one-dose screen, 48 h (100 = growth as untreated, 0 = no growth, -100 = all killed)
- CONDITION_CONTEXT: 10 µM unless noted
Compounds without any hit were thinned out: in the full panel of roughly 83,000, 20% have a hit. Calls of active or inactive are those of the source. The calls were made as follows: active = growth percent below 10; inactive = the rest.

Solved cases below.
COMPOUND	growth
CN(C)CCCCC(C(=O)CBr)(c1ccccc1)c1ccccc1	31% (inactive)
Cn1cc(-c2csc(-c3cn(CCN)c4ccccc34)n2)c2cccnc21	75.6% (inactive)
Cc1ccc2oc(=O)cc(-c3sc(N4CCCCC4)nc3-c3ccccc3)c2c1	98.5% (inactive)
CCc1ccc(-c2ccc(Nc3ccccc3)nn2)cc1S(N)(=O)=O	77.1% (inactive)
O=C1c2cc3c(cc2-c2c1c1ccc(F)cc1c(=O)n2CCCN1CCOCC1)OCO3	28.4% (inactive)

What the record says about O=C(N/N=C\c1ccccc1O)C1CC1 : growth is 108% (inactive)

What the record says about COc1cccc(-c2nn(-c3ccccc3)cc2-c2ccnc(NCCNS(=O)(=O)c3cccc(F)c3)c2)c1 : growth is 58% (inactive)

What the record says about Cn1cc(-c2csc(-c3cn(CCNC(=O)OC(C)(C)C)c4ccccc34)n2)c2cccnc21 : growth is 101% (inactive)

What the record says about N#C/C(=C\c1ccc(-c2ccc(F)cc2)o1)c1nc(-c2ccco2)cs1 : growth is 104% (inactive)

What the record says about COc1cnc2c(c1)C(=O)c1c-2n(CCCNC(C)C)c(=O)c2cc([N+](=O)[O-])ccc12 : growth is -58.4% (active)

----------
- Test system: RPMI-8226 leukemia
- ASSAY_REMARKS: NCI-60 one-dose screen, 48 h
- CONDITION_CONTEXT: 10 µM unless noted
About 83,000 compounds went through this panel and 20% of them were active in at least one assay; those are over-represented in the sample as a whole. The source made the active and inactive calls. Rule for the calls: active = growth percent below 10; inactive = the rest.
Give your call using only these classes: active, inactive

COMPOUND	GROUP
NCCNc1nc(-c2ccccc2)nc2nc(-c3ccccc3)oc12	inactive

Query string: Call for entry COC(=O)[C@]12CC[C@@H](C)[C@H](C)[C@@H]1C1=CC(=O)[C@@H]3[C@@]4(C)C[C@@H](OC(C)=O)[C@H](OC(C)=O)[C@@](C)(COC(C)=O)[C@@H]4C(=O)C[C@@]3(C)[C@]1(C)CC2 :
Result string: active

Query string: Call for entry CC(CNc1nc(Nc2ccc(Cl)c(Cl)c2)nc(C(Cl)(Cl)Cl)n1)N(C)C (configuration not stated) :
Result string: active

Query string: Call for entry COc1ccc(C2=NN(c3nc(-c4ccc(OC)cc4)c(C#N)c(=O)n3C)C(=O)CC2)cc1 :
Result string: inactive

Query string: Call for entry C=COCCCCCCCCCCCCCCCCCC :
Result string: inactive

Query string: Call for entry Fc1ccc2nc(-c3cc(-c4ccc5c(c4)OCO5)n[nH]3)[nH]c2c1 :
Result string: inactive

Query string: Call for entry Cc1nnc2nc(N)[nH]n2c1=O :
Result string: inactive

----------
- System: HS 578T breast
- ASSAY_REMARKS: NCI-60 one-dose screen, 48 h (100 = growth as untreated, 0 = no growth, -100 = all killed)
- CONDITION_CONTEXT: 10 µM unless noted
The panel holds about 83,000 compounds, 20% with a hit somewhere; the sample as a whole holds those more often.
OBSERVED_PROPERTY: growth (%)
// return numeric value only (unit: %, not printed)

Solved cases below.
C=C(C)[C@@H]1CC[C@]2(C)[C@H](CC=C3[C@@H]4CC(C)(C)CC[C@]4(C=O)CC[C@]32C)[C@@]1(C)CCCN 96
CCN1CCN(C(=O)[C@]23CCC(C)(C)C[C@@H]2C2=CC[C@@H]4[C@@]5(C)C/C(=C/c6cccnc6)C(=O)C(C)(C)[C@@H]5CC[C@@]4(C)[C@]2(C)CC3)CC1 54.6
COc1cc2nc(Cl)nc(Nc3cccc(C(=O)/C=C/c4ccc(Br)cc4)c3)c2cc1OC 98.4
CC[C@H](CC[C@@H](C)[C@H]1CC[C@H]2[C@@H]3/C(=C/c4cccnc4)C(=O)C4=CC(=O)CC[C@]4(C)[C@H]3CC[C@]12C)C(C)C 107
Cc1nn(-c2ccc(Cl)cc2)c(=O)n1CCn1cnc2ccccc21 100

# O=C1Nc2ccccc2/C1=C/c1cn(CCCn2c3ccccc3c(=O)c3ccccc32)c2ccccc12 with HS 578T breast: growth is 85.2

# NNC(=O)c1nc2ccccc2[nH]1 with HS 578T breast: growth is 109

# CCc1ccc(-c2ccc(Nc3ccccc3)nn2)cc1S(N)(=O)=O with HS 578T breast: growth is 84.1
